# Target Entity: hGIPR (Homo sapiens, UniProt P48546)
# Sequence (P48546 22-466): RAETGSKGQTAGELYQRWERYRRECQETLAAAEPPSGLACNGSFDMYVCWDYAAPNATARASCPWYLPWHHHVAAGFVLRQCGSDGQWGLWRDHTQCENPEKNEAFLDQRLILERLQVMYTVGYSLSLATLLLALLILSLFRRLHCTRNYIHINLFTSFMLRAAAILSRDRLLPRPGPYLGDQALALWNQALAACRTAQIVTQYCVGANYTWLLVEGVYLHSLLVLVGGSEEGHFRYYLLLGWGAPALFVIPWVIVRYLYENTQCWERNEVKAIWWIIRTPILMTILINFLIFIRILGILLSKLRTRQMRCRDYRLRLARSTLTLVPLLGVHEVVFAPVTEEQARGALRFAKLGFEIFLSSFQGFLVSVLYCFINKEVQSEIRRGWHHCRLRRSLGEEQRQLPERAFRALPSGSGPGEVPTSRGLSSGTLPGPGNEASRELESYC
# Test Summary: Functional cAMP activity in the presence of 1% HSA
# Format: cell-based
Starred links: 1 amine or outer side, 2 acyl side, 3 side chain; linkers in the order of their positions; H or OH if unused. Non-standard residues stand in square brackets, D forms with d. Groups on a side chain read outwards from the residue. No end group written: not given here. *: point of attachment. C20 diacid = O=C(O)CCCCCCCCCCCCCCCCCCC(=O)*; C18 diacid = O=C(O)CCCCCCCCCCCCCCCCC(=O)*; γGlu = O=C(O)[C@H](CCC(=O)[*:2])N[*:1]; αMe4Pal = C[C@](N)(Cc1ccncc1)C(=O)O; αMeL = CC(C)C[C@](C)(N)C(=O)O; AEEA = NCCOCCOCC(=O)O; Aib = CC(C)(N)C(=O)O
Metric Name: EC50 (nM)
State just the number; it will be interpreted in nM.

Ask: Specify reported EC50 for the substance shown: H-Y[Aib]QGTFTSDFSR[αMeL]LDKK([AEEA-γGlu-C18 diacid])AQ[Aib]AFIEYLLE[Aib]GPSSGAPPPSGS-NH2 [Example 79]
Result: 14.3

Ask: Determine its reported EC50: Y[Aib]QGTFTSDFSQ[αMeL]LDKK([AEEA-γGlu-C18 diacid])AQ[αMe4Pal]AFIEYLIE[Aib]GESSGAPPPSGS-NH2 [Example 232]
Result: 24.6

Ask: Query EC50 for H-Y[Aib]QGTFTSDFSR[αMeL]LDKK([AEEA-γGlu-C20 diacid])AQ[Aib]AFIEYLLE[Aib]GPSSGAPPPGGS-NH2 [Example 42]
Result: 32.3
